Please respond with reported Kb for every item in the list.
- measurement.target: Histamine H1 receptor (Cavia porcellus)
- Sequence (P31389 whole entry): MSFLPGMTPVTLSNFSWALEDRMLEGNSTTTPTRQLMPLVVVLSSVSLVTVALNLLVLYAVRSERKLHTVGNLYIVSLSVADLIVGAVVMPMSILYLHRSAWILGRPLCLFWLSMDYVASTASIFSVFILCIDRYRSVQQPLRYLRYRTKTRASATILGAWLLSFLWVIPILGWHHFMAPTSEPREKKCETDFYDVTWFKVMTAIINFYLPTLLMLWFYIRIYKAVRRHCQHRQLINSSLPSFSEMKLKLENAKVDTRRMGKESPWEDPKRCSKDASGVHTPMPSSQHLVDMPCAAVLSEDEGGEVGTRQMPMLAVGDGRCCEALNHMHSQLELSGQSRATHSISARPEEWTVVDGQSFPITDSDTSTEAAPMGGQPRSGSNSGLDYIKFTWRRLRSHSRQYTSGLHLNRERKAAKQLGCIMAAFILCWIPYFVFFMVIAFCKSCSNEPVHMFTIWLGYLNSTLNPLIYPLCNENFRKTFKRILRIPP
- experiment: Antagonist activity at histamine H1 receptor against histamine in isolated ileum of guinea pig.
- Type: functional, tissue-based
- experimental.setup: read-out: pA2 (converted)
# include the unit after the value

Returns the measured Kb for the input compound. Input: N=C(NCCCc1c[nH]cn1)NCCC(c1ccccn1)c1ccccc1Cl (configuration not stated)
513 nM

Can you handle N=C(NCCCc1c[nH]cn1)NCCC(c1ccccc1)c1ccc(Cl)c(Cl)c1 (configuration not stated) next?
195 nM

Can you handle N=C(N)NCCC(c1ccc(F)cc1)c1ccccn1 (configuration not stated) next?
229 nM

Can you handle N=C(NCCCc1c[nH]cn1)NCCC(c1cc(F)cc(F)c1)c1ccccn1 (configuration not stated) next?
275 nM

Can you handle COc1ccc(C(CC/N=C(\N)NCCCc2c[nH]cn2)c2ccccn2)cc1 (configuration not stated) next?
269 nM

Can you handle N=C(NCCCc1c[nH]cn1)NCCC(c1ccncc1)c1ccc(F)cc1 (configuration not stated) next?
37.2 nM

Can you handle N=C(NCCCc1c[nH]cn1)NCCC(c1ccccn1)c1ccc(Cl)cc1Cl (configuration not stated) next?
288 nM

Can you handle N=C(NCCCc1c[nH]cn1)NCCC(c1cccc(C(F)(F)F)c1)c1ccccn1 (configuration not stated) next?
525 nM

Can you handle N/C(=N\CCC(c1cccc(N)c1)c1ccccn1)NCCCc1c[nH]cn1 (configuration not stated) next?
851 nM

Can you handle Cc1ccc(C(CC/N=C(\N)NCCCc2c[nH]cn2)c2ccccn2)cc1 (configuration not stated) next?
148 nM

Can you handle N=C(NCCCc1c[nH]cn1)NCCC(c1ccc(Cl)c(Cl)c1)c1ccccn1 (configuration not stated) next?
79.4 nM

Can you handle N/C(=N\CCC(O)(c1ccc(F)cc1)c1ccccn1)NCCCc1c[nH]cn1 (configuration not stated) next?
115 nM

Can you handle N=C(NCCCc1c[nH]cn1)NCCC(c1cccc(F)c1)c1ccccn1 (configuration not stated) next?
158 nM

Can you handle N=C(NCCCc1c[nH]cn1)NCCC(c1ccccn1)c1ccccc1F (configuration not stated) next?
437 nM

Can you handle CN(CCC(c1ccc(F)cc1)c1ccccn1)C(=N)NCCCc1c[nH]cn1 (configuration not stated) next?
1100 nM

Can you handle N=C(NCCCc1c[nH]cn1)NCCC(c1ccccn1)c1cccs1 (configuration not stated) next?
45.7 nM

Can you handle NC(=NCCC(c1ccc(F)cc1)c1ccccn1)NCCCc1cnc[nH]1 (configuration not stated) next?
22.4 nM

Can you handle N=C(NCCCc1c[nH]cn1)NCCCC(c1ccc(F)cc1)c1ccccn1 (configuration not stated) next?
46.8 nM

Can you handle N=C(NCCCc1c[nH]cn1)NCCC(c1ccc(C(F)(F)F)cc1)c1ccccn1 (configuration not stated) next?
282 nM

Can you handle N=C(NCCCc1c[nH]cn1)NCCC(Cc1ccccc1)c1ccc(F)cc1 (configuration not stated) next?
141 nM

Can you handle N=C(NCCCc1c[nH]cn1)NCC(c1ccccc1)c1ccccn1 (configuration not stated) next?
3310 nM

Can you handle N=C(NCCCc1c[nH]cn1)NCCC(c1ccccn1)c1ccccn1 next?
389 nM

====

- measurement.target: Histamine H2 receptor (Cavia porcellus)
- experiment: Intrinsic activity (as a measure of agonism) on electrically stimulated papillary muscle of guinea pig
- Type: functional, tissue-based
- experimental.setup: Muscle tissue
Please respond with reported Intrinsic activity for every item in the list.
# answer = number (no unit)

Record lookup: for Histamine H2 receptor (Cavia porcellus), what Intrinsic activity belongs to N=C(NCCCc1c[nH]cn1)NCCC(c1ccc(C(F)(F)F)cc1)c1ccccn1 (stereo not given) ?
0.9

Can you handle N=C(NCCCc1c[nH]cn1)NCCC(c1cc(F)cc(F)c1)c1ccccn1 (stereo not given) next?
0.8

Can you handle N=C(NCCCc1c[nH]cn1)NCCC(c1ccccc1)c1ccccn1 (stereo not given) next?
0.7

Can you handle Cc1ccc(C(CC/N=C(\N)NCCCc2c[nH]cn2)c2ccccn2)cc1 (stereo not given) next?
1

Can you handle N=C(NCCCc1c[nH]cn1)NCCC(c1ccc(Br)cc1)c1ccccn1 (stereo not given) next?
0.4

====

- measurement.target: Histamine H2 receptor (Cavia porcellus) (UniProt P47747)
- Sequence (P47747 whole entry): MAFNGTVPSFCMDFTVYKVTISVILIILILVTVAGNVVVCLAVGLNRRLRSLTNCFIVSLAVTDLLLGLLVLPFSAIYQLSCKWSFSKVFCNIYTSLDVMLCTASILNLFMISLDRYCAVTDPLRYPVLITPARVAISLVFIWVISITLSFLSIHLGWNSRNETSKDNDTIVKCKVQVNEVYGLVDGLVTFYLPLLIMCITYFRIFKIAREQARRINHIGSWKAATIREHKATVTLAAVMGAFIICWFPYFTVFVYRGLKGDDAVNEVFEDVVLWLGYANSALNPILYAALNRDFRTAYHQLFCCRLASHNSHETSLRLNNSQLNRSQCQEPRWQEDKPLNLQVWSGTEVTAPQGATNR
- experiment: H2 receptor agonistic activity in isolated right atrium of guinea pig compared to histamine
- Assay type: functional, tissue-based
- experimental.setup: Cardiac atrium
Please respond with reported Intrinsic activity for every item in the list.
# answer = number (no unit)

Record lookup: for Histamine H2 receptor (Cavia porcellus) (UniProt P47747), what Intrinsic activity belongs to N=C(NCCCc1c[nH]cn1)NCCC(c1ccccn1)c1ccccc1Cl (centres undefined) ?
0.9

Can you handle N=C(NCCCc1c[nH]cn1)NCCC(c1ccc(F)c(F)c1)c1ccccn1 (centres undefined) next?
1

Can you handle N=C(NCCCc1c[nH]cn1)NCCC(c1ccccc1)c1ccc(Cl)cc1 (centres undefined) next?
1

Can you handle N=C(NCCCc1c[nH]cn1)NCCC(c1ccncc1)c1ccc(F)cc1 (centres undefined) next?
1

====

- measurement.target: UniProt:P47747
- experiment: Histamine H2 receptor agonistic activity (as a measure of agonism) at the isolated right atrium of guinea pig, activity relative to histamine.
- Assay type: functional, tissue-based
- experimental.setup: Cardiac atrium
Please respond with reported Intrinsic activity for every item in the list.
# answer = number (no unit)

Record lookup: for UniProt:P47747, what Intrinsic activity belongs to N=C(NCCCc1c[nH]cn1)NCCC(c1cc(F)cc(F)c1)c1ccccn1 (stereo not given) ?
1

Can you handle N=C(NCCCc1c[nH]cn1)NCCC(c1ccccn1)c1ccc(Cl)cc1Cl (stereo not given) next?
0.9

Can you handle N=C(NCCCc1c[nH]cn1)NCCC(c1ccc(C(F)(F)F)cc1)c1ccccn1 (stereo not given) next?
0.9

Can you handle N=C(NCCCc1c[nH]cn1)NCCSC(c1ccccc1)c1ccccn1 (stereo not given) next?
1

Can you handle N=C(NCCCc1c[nH]cn1)NCCCC(c1ccc(F)cc1)c1ccccn1 (stereo not given) next?
0.9

Can you handle N=C(NCCCc1c[nH]cn1)NCCC(c1cc(Cl)cc(Cl)c1)c1ccccn1 (stereo not given) next?
1

Can you handle N=C(NCCCc1c[nH]cn1)NCCC(c1ccc(F)cc1)c1ccccn1 (stereo not given) next?
1

Can you handle N=C(NCCCc1c[nH]cn1)NCCC(c1ccccc1)c1ccc(F)cc1 (stereo not given) next?
1

Can you handle CN(CCC(c1ccc(F)cc1)c1ccccn1)C(=N)NCCCc1c[nH]cn1 (stereo not given) next?
0.8

Can you handle N=C(NCCCc1c[nH]cn1)NCCC(Cc1ccccc1)c1ccc(F)cc1 (stereo not given) next?
0.8

====

- Species: Cavia porcellus
- experiment: Increase in coronary flow with maximal inotropic response in isolated perfused guinea pig heart
- Assay type: functional
- Parameters: unit not given beside the values
readout.name: Delta coronary flow
# answer = number (no unit)

Returns the measured Delta coronary flow for the input compound. Input: N=C(NCCCc1c[nH]cn1)NCCC(c1cc(F)cc(F)c1)c1ccccn1 (stereo not given)
182

Can you handle N=C(NCCCc1c[nH]cn1)NCCC(c1ccc(Br)cc1)c1ccccn1 (stereo not given) next?
155

Can you handle Cc1[nH]cnc1CSCCNC(=N)NCCCc1c[nH]cn1 [IMPROMIDINE] next?
100

Can you handle N=C(NCCCc1c[nH]cn1)NCCC(c1ccc(Cl)c(Cl)c1)c1ccccn1 (stereo not given) next?
128

Can you handle N=C(NCCCc1c[nH]cn1)NCCC(c1cccc(Cl)c1)c1ccccn1 (stereo not given) next?
79

Can you handle N=C(NCCCc1c[nH]cn1)NCCC(c1ccc(Cl)cc1)c1ccccn1 (stereo not given) next?
103

Can you handle N=C(NCCCc1c[nH]cn1)NCCC(c1ccc(F)c(F)c1)c1ccccn1 (stereo not given) next?
108

Can you handle N=C(NCCCc1c[nH]cn1)NCCC(c1ccc(F)cc1)c1ccccn1 (stereo not given) [ARPROMIDINE] next?
143

Can you handle N=C(NCCCc1c[nH]cn1)NCCC(c1ccccc1)c1ccccn1 (stereo not given) next?
121

Can you handle Cc1ccc(C(CC/N=C(\N)NCCCc2c[nH]cn2)c2ccccn2)cc1 (stereo not given) next?
59

====

- measurement.target: Histamine H2 receptor (Cavia porcellus)
- experiment: Histamine H2 receptor agonistic activity (as a measure of agonism) at the isolated right atrium of guinea pig, activity relative to histamine.
- Type: functional, tissue-based
- experimental.setup: Cardiac atrium
readout.name: Intrinsic activity

Returns the measured Intrinsic activity for the input molecule. Input: N/C(=N\CCC(O)(c1ccc(F)cc1)c1ccccn1)NCCCc1c[nH]cn1 (stereo not given)
0.9

Can you handle N=C(NCCCc1c[nH]cn1)NCCC(c1ccc(Cl)c(Cl)c1)c1ccccn1 (stereo not given) next?
1

Can you handle N/C(=N\CCC(c1ccc(O)cc1)c1ccccn1)NCCCc1c[nH]cn1 (stereo not given) next?
1

Can you handle COc1ccc(C(CC/N=C(\N)NCCCc2c[nH]cn2)c2ccccn2)cc1 (stereo not given) next?
1

Can you handle N=C(NCCCc1c[nH]cn1)NCCC(c1ccccn1)c1ccccc1F (stereo not given) next?
1

Reference source: ChEMBL document CHEMBL1124639
